B1: glmS ribozyme (parent)
chain: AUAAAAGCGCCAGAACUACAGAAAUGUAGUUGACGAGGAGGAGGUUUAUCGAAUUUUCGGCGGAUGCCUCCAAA

Variants of: B1
test: self-cleavage kobs at 2500 uM GlcN6P; higher = faster cleavage; RNA array
reported-conditions: with glucosamine-6-phosphate
This sample holds only a part of the variants without activity.
property-label: self-cleavage kobs at 2500 uM GlcN6P (s⁻¹)
Answer with a number only, understood to be in s⁻¹.

Please look up its self-cleavage kobs at 2500 uM GlcN6P: G32C C58A
0.000139

Similarly, A12U G37A C70G ?
0.00013

Would you kindly repeat that for C16G U49G U55A ?
5.61e-05

What do you have for G32U U54C ?
0.000272

What about this variant? G26U G41C
0.000123

What do we get for A42U A53U ?
8.5e-05

Lookup A12C A14C C70U
9.06e-05

Further, for C10U A14G ?
8.95e-05

Request: G40A U45A
0.00221

// next record C16G U65A
0.00027

Also need U47G C67G , thanks.
0.000429

Query C34A G51U next
0.000354

Please answer likewise for A15G C16A C70U
0.000315

Now try A14C U57C .
3.68e-05

What do you have for U46A U54G C70G ?
0.000305

Same for U54C C67G
0.000553

Also need G32U G59A C68G , thanks.
0.000713

Also, A39U G66A please.
0.00655

Now consider G13U C50G C67G and answer again.
7.52e-05

And G32A C68G ?
3.93e-05

Field entry: U30G U49G U54A
4.83e-05

Do the same for G13U A14C please
4.71e-05

Also A12G C68U ?
0.000137

Then this variant: A12C A39G
0.00799

Follow-up item: A15G A42U C71U
0.000188

Next variant up: A15G G59U
4.46e-05

Follow-up item: U30G U46G
0.00112

# repeat for A15C C50G G62U
0.000111

And G29U U31A U69G C70A ?
8.63e-05

What about A6G A12C ?
6.08e-05

Same for A14C A39G C58G
5e-05

And the next one, C11A U31A ?
0.000147

Lookup C16U A53U A64U
4.5e-05

Repeat with A14U C50G C67U
0.000193

Item: A15U U31G G40A
0.000101

Moving on to A12U U47G C70G
0.000217

Check U45G A53C C71U too.
0.000938

Next up: A6U C50G U55G A64G C67U
0.000132
